Target: DNMT3A (Homo sapiens, UniProt Q9Y6K1 Q9Y6K1:1-912)
Sequence (Q9Y6K1 whole entry, one chain of several): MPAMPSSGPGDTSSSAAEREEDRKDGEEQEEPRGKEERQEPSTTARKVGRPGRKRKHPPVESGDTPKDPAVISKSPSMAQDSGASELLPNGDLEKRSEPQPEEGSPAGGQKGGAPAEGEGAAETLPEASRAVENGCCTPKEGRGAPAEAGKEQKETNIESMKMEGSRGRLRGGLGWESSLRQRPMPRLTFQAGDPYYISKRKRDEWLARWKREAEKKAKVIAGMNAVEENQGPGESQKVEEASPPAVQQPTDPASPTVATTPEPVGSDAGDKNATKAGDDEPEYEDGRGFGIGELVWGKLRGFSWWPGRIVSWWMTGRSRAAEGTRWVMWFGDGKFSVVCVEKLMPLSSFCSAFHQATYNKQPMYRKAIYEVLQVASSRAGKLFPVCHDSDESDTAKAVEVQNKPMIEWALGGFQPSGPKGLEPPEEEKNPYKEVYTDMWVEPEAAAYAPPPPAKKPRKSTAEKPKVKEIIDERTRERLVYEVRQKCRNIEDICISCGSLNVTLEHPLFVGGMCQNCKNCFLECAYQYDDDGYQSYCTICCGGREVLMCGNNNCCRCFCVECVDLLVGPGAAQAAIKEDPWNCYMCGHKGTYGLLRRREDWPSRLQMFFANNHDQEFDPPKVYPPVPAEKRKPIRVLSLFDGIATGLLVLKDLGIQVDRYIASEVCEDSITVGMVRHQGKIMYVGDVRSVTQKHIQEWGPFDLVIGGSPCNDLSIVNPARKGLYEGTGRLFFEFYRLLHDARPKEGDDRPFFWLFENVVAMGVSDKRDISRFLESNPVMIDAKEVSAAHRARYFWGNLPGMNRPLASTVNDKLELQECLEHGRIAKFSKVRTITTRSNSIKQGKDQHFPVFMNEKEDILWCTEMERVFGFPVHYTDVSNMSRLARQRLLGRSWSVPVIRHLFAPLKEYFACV
Test: inhibition; 25 nM DNMT3A, lambda DNA substrate, 1 uM SAM; Table 5 gives 1.5 uM
ENDPOINT: pIC50
Please report pIC50 as the negative decimal logarithm of the molar concentration, giving only the number.

Incoming: Data request, read-out pIC50, for CCTATGCGATCGAGTTTTCTCGATCGCATAGG (structured_DNA, zebularine (pyrimidin-2-one ribonucleoside) at 21 and 25; phosphodiester [21,25]) [MTC-423]
Outgoing: 5.80
